# targetEntity: adenosine A2a receptor (Homo sapiens)
# Sequence (P29274 whole entry): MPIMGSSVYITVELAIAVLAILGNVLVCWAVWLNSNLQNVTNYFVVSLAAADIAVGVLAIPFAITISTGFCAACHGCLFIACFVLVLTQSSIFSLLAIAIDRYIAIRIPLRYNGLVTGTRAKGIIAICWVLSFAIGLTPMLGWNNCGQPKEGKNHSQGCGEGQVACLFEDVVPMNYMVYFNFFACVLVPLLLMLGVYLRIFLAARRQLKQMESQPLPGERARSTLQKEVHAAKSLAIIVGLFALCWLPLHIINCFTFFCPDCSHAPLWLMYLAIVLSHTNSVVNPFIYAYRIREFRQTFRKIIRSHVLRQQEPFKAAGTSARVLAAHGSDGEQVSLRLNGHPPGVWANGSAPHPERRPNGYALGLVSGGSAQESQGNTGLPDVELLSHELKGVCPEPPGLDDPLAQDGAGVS
# protocolDetails: Intracellular cAMP (cAMP-RIA) in CHO cells transfected with cDNA for the A2a receptor, agonist mode
# Assay type: cell-based
# testParameters: summary of cAMP data
reportedProperty: effect on cells with the A2a receptor (in words)

effect on cells with the A2a receptor (in words) for N#Cc1c(N)nc(SCc2ncc[nH]2)c(C#N)c1-c1ccc(O)cc1 is virtually no effect

effect on cells with the A2a receptor (in words) for N#Cc1c(N)nc(SCC(N)=O)c(C#N)c1-c1ccc(O)cc1 is virtually no effect

effect on cells with the A2a receptor (in words) for N#Cc1c(N)nc(SCCO)c(C#N)c1-c1cccc(O)c1 is virtually no effect

effect on cells with the A2a receptor (in words) for N#Cc1c(N)nc(SCCO)c(C#N)c1-c1ccccc1 is virtually no effect

---

# targetEntity: adenosine A2a receptor (Homo sapiens)
# protocolDetails: Intracellular cAMP (cAMP-RIA) in CHO cells transfected with cDNA for the A2a receptor, agonist mode
# Type: cell-based
# testParameters: CHO cells with A2a receptor, 10^-7 M, based on control without substance
# Method: Cells of the permanent line CHO (Chinese Hamster Ovary) were stably transfected with cDNA for the adenosine receptor subtypes A1, A2a, A2b and A3. Binding of the substances to the A2a or A2b receptor subtypes was determined by measuring the intracellular cAMP concentration in these cells using a conventional radioimmunological assay (cAMP-RIA, IBL GmbH, Hamburg, Germany). […]
reportedProperty: Concentration of intracellular cAMP in percent (%)

Concentration of intracellular cAMP in percent for N#Cc1c(N)nc(SCCO)c(C#N)c1-c1cccc(O)c1 is 117

Concentration of intracellular cAMP in percent for N#Cc1c(N)nc(SCCO)c(C#N)c1-c1ccc(O)cc1 is 143

Concentration of intracellular cAMP in percent for N#Cc1c(N)nc(SCCO)c(C#N)c1-c1ccccc1 is 107

Concentration of intracellular cAMP in percent for N#Cc1c(N)nc(SCc2ncc[nH]2)c(C#N)c1-c1ccc(O)cc1 is 218

Concentration of intracellular cAMP in percent for CC(O)CSc1nc(N)c(C#N)c(-c2cccc(O)c2)c1C#N (stereo not drawn) is 67

Concentration of intracellular cAMP in percent for N#Cc1c(N)nc(SCC(N)=O)c(C#N)c1-c1ccc(O)cc1 is 92

---

# targetEntity: adenosine A2a receptor (Homo sapiens)
# protocolDetails: Intracellular cAMP (cAMP-RIA) in CHO cells transfected with cDNA for the A2a receptor, agonist mode
# Type: cell-based
# testParameters: CHO cells with A2a receptor, 10^-6 M, based on control without substance
# Protocol: Cells of the permanent line CHO (Chinese Hamster Ovary) were stably transfected with cDNA for the adenosine receptor subtypes A1, A2a, A2b and A3. Binding of the substances to the A2a or A2b receptor subtypes was determined by measuring the intracellular cAMP concentration in these cells using a conventional radioimmunological assay (cAMP-RIA, IBL GmbH, Hamburg, Germany). […]
reportedProperty: Concentration of intracellular cAMP in percent (%)

Concentration of intracellular cAMP in percent for N#Cc1c(N)nc(SCCO)c(C#N)c1-c1ccccc1 is 146

Concentration of intracellular cAMP in percent for CC(O)CSc1nc(N)c(C#N)c(-c2cccc(O)c2)c1C#N (stereo not drawn) is 108

Concentration of intracellular cAMP in percent for N#Cc1c(N)nc(SCc2ncc[nH]2)c(C#N)c1-c1ccc(O)cc1 is 235

Concentration of intracellular cAMP in percent for N#Cc1c(N)nc(SCCO)c(C#N)c1-c1ccc(O)cc1 is 117

(P) N#Cc1c(N)nc(SCC(N)=O)c(C#N)c1-c1ccc(O)cc1
(Q) N#Cc1c(N)nc(SCCO)c(C#N)c1-c1cccc(O)c1
Challenge: Parameter metric = Concentration of intracellular cAMP in percent. Return the lower-valued option from P and Q . Please respond with the label that marks your chosen entry.
Response given: P
